# Experimental Target: Rap guanine nucleotide exchange factor 3 (Homo sapiens) (UniProt O95398)
# Sequence (O95398 whole entry, looked up): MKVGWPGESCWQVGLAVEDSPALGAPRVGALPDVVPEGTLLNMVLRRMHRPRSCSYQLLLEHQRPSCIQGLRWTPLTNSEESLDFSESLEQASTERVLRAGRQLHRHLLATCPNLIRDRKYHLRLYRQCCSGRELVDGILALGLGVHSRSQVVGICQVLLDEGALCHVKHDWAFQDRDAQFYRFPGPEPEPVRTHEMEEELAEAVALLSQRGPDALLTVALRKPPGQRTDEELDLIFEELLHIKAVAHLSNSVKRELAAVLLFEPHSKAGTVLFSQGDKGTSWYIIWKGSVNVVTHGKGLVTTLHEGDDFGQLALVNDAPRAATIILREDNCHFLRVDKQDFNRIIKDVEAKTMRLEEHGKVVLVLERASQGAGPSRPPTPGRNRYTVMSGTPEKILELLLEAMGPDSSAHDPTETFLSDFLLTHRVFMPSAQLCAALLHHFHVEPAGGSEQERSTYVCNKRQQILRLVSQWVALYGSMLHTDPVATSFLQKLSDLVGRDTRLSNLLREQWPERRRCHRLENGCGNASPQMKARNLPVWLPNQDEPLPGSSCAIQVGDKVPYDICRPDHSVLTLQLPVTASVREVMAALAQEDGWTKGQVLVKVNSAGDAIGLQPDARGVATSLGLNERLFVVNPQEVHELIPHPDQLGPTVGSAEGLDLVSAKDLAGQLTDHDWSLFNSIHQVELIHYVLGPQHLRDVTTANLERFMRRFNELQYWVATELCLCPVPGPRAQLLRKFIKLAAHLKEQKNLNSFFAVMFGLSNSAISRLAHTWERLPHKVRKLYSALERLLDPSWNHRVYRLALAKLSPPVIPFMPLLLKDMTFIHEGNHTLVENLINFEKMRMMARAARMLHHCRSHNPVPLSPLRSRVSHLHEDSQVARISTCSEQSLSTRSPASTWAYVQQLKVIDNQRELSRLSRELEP
# Test Protocol: Counterscreen qHTS for antagonist of cAMP-regulated guanine nucleotide exchange factor 3 (EPAC1) (AID 1645888);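 also: fluorescence loss as bound BODIPY-GDP is released from Rap1B; % of control where 0% means no effect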
# Protocol Conditions: Rap1B-BODIPY-GDP nucleotide exchange, fluorescence; series mostly up to 154 µM
Results filed as inconclusive are left out. Activity calls are given as the source filed them. Calls follow the shape of the dose curve; as a rule, active = well fitted inhibition curve with a large enough effect; inconclusive = small, poorly fitted or top-dose-only effect; inactive = no such curve, though single readings can be large or run the other way.
Value Kind: activity change, negative = inhibition

Below: 5 molecules and their reported activity change, negative = inhibition.
CC(=O)Nc1ccc(S(=O)(=O)/N=C2/NC(=O)/C(=C\c3ccco3)S2)cc1 = inactive
CC(c1ccon1)N(C)Cc1cn(C)nc1-c1cccc(Cl)c1 (stereo unspecified) = inactive
COC(=O)c1cn(C(=O)c2ccc(C)cc2C)c2ccccc12 = inactive
O=C1CCC2CN3CCc4c([nH]c5ccccc45)C3CC2C1 (stereo unspecified) = 2.15% [at 30.8 µM] (inactive)
COCCn1c(N)c(C(=O)NCC2CCCO2)c2nc3ccccc3nc21 (stereo unspecified) = inactive

Provide each entry's activity change, negative = inhibition from the list below.
1. Brc1ccc(C2Nc3cccc4cccc(c34)N2)cc1
2. COc1cc(Cl)cc(/C=N\NC(=O)c2ccc3c(c2)OCO3)c1O
3. Cc1cccc2c1NC(=O)C2(O)N1CCCC(C)C1 (stereo unspecified)
4. CCCCn1c(COc2cccc(OC)c2)nc2ccccc21
5. Cc1ccc(C(=O)N2CCc3cc(CNC(=O)CSc4ccccc4)ccc32)cc1
6. O=C(NN1C(=O)/C(=C\c2ccc(O)c([N+](=O)[O-])c2)SC1=S)c1ccccc1Cl

Reply |
["inactive", "inactive", "inactive", "inactive", "inactive", "-8.56% [at 30.8 µM] (inactive)"]

###

# Experimental Target: Rap guanine nucleotide exchange factor 3 (Homo sapiens)
# Test Protocol: Counterscreen qHTS for agonist of cAMP-regulated guanine nucleotide exchange factor 3 (EPAC1) (AID 1645889); also: % of control where 0% means no effect; nearly all actives have a fitted effect of over 40% in size
# Protocol Conditions: EPAC1 Rap1B-BODIPY-GDP exchange, fluorescence; series mostly up to 154 µM
# Text: Assay Provider (PI): Xiaodong Cheng Ph.D. The University of Texas Medical Branch, […], TX MLPCN Grant: NS066510 In multi-cellular eukaryotic organisms, the effects of cAMP are transduced by two ubiquitously-expressed intracellular cAMP receptors, the classic protein kinase A/cAMP-dependent protein kinase (PKA/cAPK) and the more recently discovered exchange protein directly activated by cAMP/cAMP-regulated guanine nucleotide exchange factor (EPAC/cAMP-GEF). […]
Inconclusive results are not listed. Active and inactive are the calls of the source. The call rests on the fitted dose curve; in most records, active means well fitted activation curve with a large enough effect; inconclusive means small, poorly fitted or top-dose-only effect, or another doubt; inactive means no such curve, though single readings can be large or run the other way.
Value Kind: activation

Below: 4 compounds and their reported activation.
CCOC(=O)c1cc(-c2nnc(SCC(=O)Nc3ccc(F)cc3)o2)c(C)nc1C = inactive
CCOC(=O)c1c(NC(=O)C2C3C=CC(C3)C2C(=O)O)sc2c1CCC(CC)C2 (stereo unspecified) = inactive
O=C(/C=C/c1ccco1)NC(=S)Nc1cccc(-c2nc3ccccc3o2)c1 = 10.2% [at 30.8 µM] (inactive)
CCN(CC)c1ccc2cc(C(=O)NNC(=O)c3ccc(S(=O)(=O)N4CCCCC4)cc3)c(=O)oc2c1 = inactive

Provide each entry's activation from the list below.
1. CCCCN1C(=O)C(NC(=O)c2ccc(C(C)(C)C)cc2)(C(F)(F)F)C(C(=O)OC)=C1C (stereo unspecified)
2. Cc1ccc(S(=O)(=O)NCc2ccccc2)cc1C(=O)N1CCCC(C(F)(F)F)C1 (stereo unspecified)
3. COc1ccccc1N1C(=O)C2C(C(=O)c3ccccc3)=NN(c3ccc(Br)cc3)C2C1=O (stereo unspecified)

Reply |
1: inactive; 2: inactive; 3: inactive

###

# Experimental Target: Guanidinoacetate N-methyltransferase (Homo sapiens) (UniProt Q14353)
# Test Protocol: Confirmatory Screen for Target Class Profiling of Small Molecule Inhibitors of Methyltransferases (AID 1745852); as to activity change, negative = inhibition: % is scaled to controls: 0 for no effect and ±100 for the full control effect
# Protocol Conditions: MTase-Glo luminescence, SAH detection, recombinant enzyme; at 57.3 µM (top of the series) unless noted
Value Kind: activity change, negative = inhibition (%)
Answers are plain numbers, in %.

Below: 3 compounds and their reported activity change, negative = inhibition.
CC1(C(=O)NC2CCCC2)Cn2c(c(-n3cccc3)c3ccccc32)C(=O)N1Cc1ccccn1 (stereo unspecified) = 1.85
CCCC1c2cccn2CCN1C(=O)Nc1cccc(Cl)c1C (stereo unspecified) = -4.33
CCCC1c2cccn2CCN1C(=O)Nc1cc(Cl)c(OC)cc1OC (stereo unspecified) = -6.89

Provide each entry's activity change, negative = inhibition from the list below.
1. O=C(N[C@H](C1CCNCC1)C1CC(O)C1)c1ccc2nccnc2c1 (stereo partly specified)
2. COc1ccc(CCN2C(=O)c3cc4occc4n3CC2(C)C(=O)NC2CCCCC2)cc1OC (stereo unspecified)
3. COc1ccc(OC)c2c1cc1n2CC(C)(C(=O)NC2CCCCC2)N(Cc2cccnc2)C1=O (stereo unspecified)
4. Nc1nc(NCc2ccc(Cl)cc2Cl)cc(C2CC(O)C2)n1 (stereo unspecified)
5. O=C(CCc1nnc2n(Cc3ccccc3Cl)c(=O)c3ccccc3n12)NCCc1c[nH]c2ccccc12

Reply |
[1.16, 0, -5.74, -2.38, 0]

###

# Experimental Target: Rap guanine nucleotide exchange factor 3 (Homo sapiens) (UniProt O95398)
# Test Protocol: Counterscreen qHTS for agonist of cAMP-regulated guanine nucleotide exchange factor 3 (EPAC1) (AID 1645889); also: % of control where 0% means no effect; nearly all actives have a fitted effect of over 40% in size
# Protocol Conditions: EPAC1 Rap1B-BODIPY-GDP exchange, fluorescence; series mostly up to 154 µM
Inconclusive results are not listed. Active and inactive are the calls of the source. The call rests on the fitted dose curve; in most records, active means well fitted activation curve with a large enough effect; inconclusive means small, poorly fitted or top-dose-only effect, or another doubt; inactive means no such curve, though single readings can be large or run the other way.
Value Kind: activation

Below: 5 compounds and their reported activation.
O=C(O)c1ccc(COc2ccc3ccccc3c2/C=C2/NC(=O)N(Cc3ccc(F)cc3)C2=O)cc1 = inactive
CCOC(=O)C1Oc2ccccc2C(c2ccc(OC)cc2)=C1C(=O)OC (stereo unspecified) = inactive
Cc1noc(C)c1COc1ccccc1C(=O)N(C)Cc1ccc(C(C)(C)C)cc1 = inactive
COc1cc(C(c2c(C(=O)O)[nH]c3ccccc23)c2c(C(=O)O)[nH]c3ccccc23)ccc1OCc1ccccc1 = inactive
COc1ccc(CN(C(=O)c2ccco2)c2ccc(C)c(C)c2)cc1 = 12.3% [at 30.8 µM] (inactive)

Provide each entry's activation from the list below.
1. COC(=O)COc1ccc(C(c2c(C)[nH][nH]c2=O)c2c(C)[nH][nH]c2=O)cc1
2. CSc1ccccc1NC(=O)CN1c2ccccc2CC1C (stereo unspecified)
3. CS/C(Nc1cc(Cl)ccc1Cl)=C(/C#N)C(=O)c1ccco1
4. Cc1ccc(C(=O)c2no[n+]([O-])c2C(=O)c2ccc(C)cc2)cc1
5. CCCCC(CC)C(=O)Nc1ccc(Nc2ccccc2)cc1 (stereo unspecified)
6. COc1cc(/C=N/NC(=O)c2ccccc2O)ccc1OCC(=O)Nc1ccccc1

Reply |
inactive
44.6% [at 30.8 µM] (inactive)
inactive
inactive
inactive
13.4% [at 30.8 µM] (inactive)

###

Please provide measured activation for the entries that follow.
# Test Protocol: qHTS assay for environmental chemicals that activate the Aryl hydrocarbon Receptor (AhR) signaling pathway (AID 651777); also: % of control where 0% means no effect; nearly all actives have a fitted effect of over 15% in size
# Protocol Conditions: 1A2-DRE human hepatoma cells, luciferase, 24 h; stronger effect = higher value
Records with an inconclusive call do not appear. Calls of active or inactive are those of the source. Calls come from the whole dose curve; as a rule, active = well fitted activation curve with a large enough effect; inconclusive = small, poorly fitted or top-dose-only effect; inactive = flat fitted curve, though single readings scatter.

Below: 8 compounds and their reported activation.
CCCCCCCCOC(=O)c1cc(O)c(O)c(O)c1 = 0.999% (inactive)
C=CC(=C)CCC=C(C)C = 0.322% (inactive)
C=C(C)C1CC=C(C)C(O)C1 (centres undefined) = -0.5% (inactive)
CN(C)CCCCCCN(C)C = 1.69% (inactive)
O[C@@H]([C@H](O)[C@@H](O)CBr)[C@@H](O)CBr = 0.0467% (inactive)
CCO = -1.26% (inactive)
O=C(O)c1ccccc1 = 2.1% (inactive)
C[Si](C)(C)O[Si](C)(C)O[Si](C)(C)C = -0.707% (inactive)

Ask | Return reported activation. Input compound: `C=Cc1ccccc1Cl`
Reply | -0.0962% (inactive)

###

# Experimental Target: Phenylethanolamine N-methyltransferase (Homo sapiens) (UniProt P11086)
# Sequence (P11086 whole entry, looked up): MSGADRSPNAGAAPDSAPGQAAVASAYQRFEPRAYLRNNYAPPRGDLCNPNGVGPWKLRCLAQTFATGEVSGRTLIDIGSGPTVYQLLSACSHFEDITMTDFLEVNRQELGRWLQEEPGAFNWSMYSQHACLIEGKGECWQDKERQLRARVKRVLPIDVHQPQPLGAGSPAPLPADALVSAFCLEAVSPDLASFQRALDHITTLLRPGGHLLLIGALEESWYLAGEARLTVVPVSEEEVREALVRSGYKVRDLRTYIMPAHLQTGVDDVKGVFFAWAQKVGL
# Test Protocol: Confirmatory Screen for Target Class Profiling of Small Molecule Inhibitors of Methyltransferases (AID 1745852)
# Protocol Conditions: MTase-Glo luminescence, SAH detection, recombinant enzyme; measured here: PNMT max response; stronger effect = lower value
Value Kind: activity (%)
Give bare numbers, in %.

Cc1noc(C)c1-c1cnc(Nc2ccncc2)c2c1CCO2 = 2.25
CNc1cc(C2CC(NC(=O)COc3ccc(Cl)cc3C)C2)nc(N)n1 (stereo unspecified) = 6.12
CCN(CC)Cc1cnc2c(C(=O)N3CCCN4CCC[C@H]4C3)cnn2c1 = 8.45
COc1ccc2c(c1)C(CN1CCN(c3ccc4oc(C(=O)O)cc4c3Cl)CC1)=CC(C)(C)CO2 = 3.5
Cc1noc(C)c1-c1cc(-c2ccc(CN(C)C)cc2)cn2cncc12 = -3.78

Moving on to another molecule below.
Ask | Return reported activity. Input molecule: COC(=O)c1ccc(C)c2c1C1C=CCC1[C@@H](c1ccc(C(=O)O)cc1)N2 (stereo partly specified)
Reply | -3.22

Ref: PubChem BioAssay (NCATS)
